target: CDK6/CycD3 (Homo sapiens (Human)); assay: CDK6/CycD3 kinase assay
Sequence (Q00534 whole entry): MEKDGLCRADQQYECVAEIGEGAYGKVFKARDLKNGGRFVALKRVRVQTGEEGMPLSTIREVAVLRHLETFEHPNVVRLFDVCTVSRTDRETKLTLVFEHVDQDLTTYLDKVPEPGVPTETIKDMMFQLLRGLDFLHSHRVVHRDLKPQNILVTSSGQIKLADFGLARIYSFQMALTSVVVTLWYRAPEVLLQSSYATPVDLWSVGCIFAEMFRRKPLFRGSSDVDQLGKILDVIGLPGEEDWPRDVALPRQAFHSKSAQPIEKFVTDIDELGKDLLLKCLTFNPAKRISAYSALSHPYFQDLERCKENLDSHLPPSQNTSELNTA
Sequence (P30281 whole entry partner): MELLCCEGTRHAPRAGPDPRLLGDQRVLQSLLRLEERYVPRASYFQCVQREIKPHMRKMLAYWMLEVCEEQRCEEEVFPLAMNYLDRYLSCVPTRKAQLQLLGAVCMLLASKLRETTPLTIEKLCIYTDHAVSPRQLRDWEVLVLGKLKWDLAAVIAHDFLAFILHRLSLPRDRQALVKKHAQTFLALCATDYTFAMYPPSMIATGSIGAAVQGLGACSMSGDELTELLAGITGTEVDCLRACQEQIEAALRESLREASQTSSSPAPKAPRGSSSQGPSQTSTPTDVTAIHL
property-measured: pIC50
# reply with the number alone; pIC50 is -log10 of concentration in mol/L

C[C@H]1CNC(=O)N1c1ccnc(Nc2ccc(N3CCN(C)CC3)cn2)n1 has a reported pIC50 of 5.40

Short answer for CC[C@H]1CC(=O)NN1c1ccnc(Nc2ccc(N3CCN(C)CC3)cn2)n1 : pIC50 was 4.48

The compound listed as CN1CCN(c2ccc(Nc3nccc(N4C(c5ccccc5)=NCC45CCCCC5)n3)nc2)CC1 has a reported pIC50 of 4.15

For C[C@H]1CNC(=O)CN1c1ccnc(Nc2ccc(N3CCN(C)CC3)cn2)n1 the compound record lists pIC50 as 5.24

Entry under test: CC(C)[C@H]1CNC(=O)N1c1ccnc(Nc2ccc(N3CCN(C)CC3)cn2)n1 . Its pIC50 was 5.48

For record CN1CCN(c2ccc(Nc3nccc(N4CC(=O)NCC45CCCCC5)n3)nc2)CC1 the listed pIC50 is 6.00

compound CN1CCN(c2ccc(Nc3nccc(N4CCNC4=O)n3)nc2)CC1 , pIC50 observed: 5.47

Data point: CN1CCN(c2ccc(Nc3nccc(N4C(=O)NCC45CCCCC5)n3)nc2)CC1 ; pIC50 = 5.30

The compound identified as CN1CCN(c2ccc(Nc3nccc(N4C(=O)N(Cc5ccccc5)CC45CCCCC5)n3)nc2)CC1 registered its pIC50 at 4.45

CN1CCN(c2ccc(Nc3nccc(N4C(=O)N(C)CC45CCCCC5)n3)nc2)CC1 yielded pIC50 of 4.79

# compound CN1CCN(c2ccc(Nc3nccc(N4CCNC(=O)C4)n3)nc2)CC1 ; its pIC50 = 4.29
